Read-out: CD69, CD69 (gene 969)
experimental details: BSK_IMphg_CD69: BioMAP Diversity Plus: IMphg Assay for CD69 Biomarker Activity (AID 2284257)
condition set: primary human endothelial cells with macrophages
The source made the active and inactive calls. Rule for the calls: active = hit-call score of the fitted dose curve at least 0.9, where 1 is the maximum; inactive = score below 0.9.

| compound | outcome |
| --- | --- |
| NC(=O)C(F)(F)C(F)(F)F | inactive |
| CC(O)C(F)(F)C(F)(F)F (stereo not drawn) | inactive |
| OCC(F)(F)OC(F)(F)C(F)(F)OC(F)(F)CO | inactive |

###

Read-out: Interleukin-8 (IL8), CXCL8 (gene 3576)
experimental details: BSK_hDFCGF_IL8: BioMAP Diversity Plus: hDFCGF Assay for Interleukin-8 (IL8) Biomarker Activity (AID 2283058)
condition set: primary human foreskin fibroblasts; actives raise or lower the signal
Activity calls are given as the source filed them. Rule for the calls: active = hit-call score of the fitted dose curve at least 0.9, where 1 is the maximum; inactive = score below 0.9.
Tick one outcome: active, inactive

Answered examples (8):
| compound | category label |
| --- | --- |
| CCCCN(CCCC)SN(C)C(=O)Oc1cccc2c1OC(C)(C)C2 | active |
| CCN(CC)c1ccccc1 | inactive |
| ClC1=C(Cl)C2(Cl)C3C(Cl)C(Cl)CC3C1(Cl)C2(Cl)Cl (centres undefined) | active |
| CCOP(=S)(OCC)SCS(=O)(=O)CC | inactive |
| CCOP(=S)(OCC)SCn1nnc2ccccc2c1=O | inactive |
| O=c1ssc(Cl)c1Cl | active |
| O=C(O)C(F)(F)OC(F)(F)C(F)(F)OC(F)(F)F | inactive |
| Nc1cc2c3c(c1)C(c1ccccc1)=N[C@@H](NC(=O)c1cccnc1)C(=O)N3CC2 | inactive |

Lookup: Which outcome was entered for the compound `CSC(C)(C)C=NO` in this test?
Found: inactive

Lookup: Which outcome was entered for the compound CCOP(=S)(Oc1ccc([N+](=O)[O-])cc1)c1ccccc1 (centres undefined) in this test?
Found: inactive

Lookup: Which outcome was entered for the compound COC(=O)C(F)(F)C(F)(F)OC(F)(C(F)(F)F)C(F)(F)OC(F)=C(F)F (centres undefined) in this test?
Found: inactive

Lookup: Which outcome was entered for the compound O=P(OCC(Br)CBr)(OCC(Br)CBr)OCC(Br)CBr (centres undefined) in this test?
Found: inactive

Lookup: Which outcome was entered for the compound `CCOP(=S)(OCC)SCSc1ccc(Cl)cc1` in this test?
Found: inactive

Lookup: Which outcome was entered for the compound `CC(C)Nc1ccc(Nc2ccccc2)cc1` in this test?
Found: active

Lookup: Which outcome was entered for the compound `COP(N)(=S)OC` in this test?
Found: inactive

Lookup: Which outcome was entered for the compound `c1ccc2c(c1)Nc1ccccc1S2` in this test?
Found: inactive

Lookup: Which outcome was entered for the compound `OCC(F)(F)OC(F)(F)C(F)(F)OC(F)(F)C(F)(F)OC(F)(F)CO` in this test?
Found: inactive

Lookup: Which outcome was entered for the compound O=P1(N(CCCl)CCCl)NCCCO1 (centres undefined) in this test?
Found: inactive

Lookup: Which outcome was entered for the compound CCCCC(CC)COP(=O)(Oc1ccccc1)Oc1ccccc1 (centres undefined) in this test?
Found: active

###

target or system: Estrogen receptor (Homo sapiens)
experimental details: OT_ER_ERaERa_0480: Odyssey Thera (OT) 8-hour HEK293T Protein-Complementation Assay for Estrogen Receptor-alpha/-alpha Homodimer (AID 2283351);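 note: rise in fluorescence from reassembled reporter fragments on ERα LBD homodimer in nucleus or whole cell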
Inconclusive results are not listed. Activity calls are given as the source filed them. How the source made its calls: active means hit-call score of the fitted dose curve at least 0.9, where 1 is the maximum; inconclusive means response in the unintended direction; inactive means score below 0.9.
Tick one outcome: active, inactive

Answered examples (2):
| molecule | category label |
| --- | --- |
| CC(Cc1ccc(OCC(=O)O)cc1)NCC(O)c1csc(C(F)(F)F)n1 (configuration not stated) | inactive |
| CCOS(=O)(=O)OCC | inactive |

Lookup: Which outcome was entered for the molecule `CC(C)(C)OOC(C)(C)C` in this test?
Found: inactive

Lookup: Which outcome was entered for the molecule `Cc1cccc(N)c1` in this test?
Found: inactive

Lookup: Which outcome was entered for the molecule O=P1(N(CCCl)CCCl)NCCCO1 (configuration not stated) in this test?
Found: inactive

###

experimental details: BSK_4H_SRB: Viability Assessment in the BioMAP Diversity Plus: 4H Assay (AID 2283027);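 note: cells exposed to compound for 24 h before staining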
condition set: primary human endothelial cells (HUVEC)
Active and inactive are the calls of the source. Rule for the calls: active = hit-call score of the fitted dose curve at least 0.9, where 1 is the maximum; inactive = score below 0.9.
Tick one outcome: active, inactive

Answered examples (5):
| compound | category label |
| --- | --- |
| c1ccc2c(c1)sc1ccccc12 | inactive |
| CCOc1ccc(C(C)(C)COCc2cccc(Oc3ccccc3)c2)cc1 | inactive |
| ClC1=C(Cl)C2(Cl)C3C(Cl)C(Cl)CC3C1(Cl)C2(Cl)Cl (configuration not stated) | active |
| O=C(O)C(Cl)Cl | inactive |
| CCCCOCCOP(=O)(OCCOCCCC)OCCOCCCC | inactive |

Lookup: Which outcome was entered for the compound `CC(C)(C)c1ccccc1OP(=O)(Oc1ccccc1)Oc1ccccc1` in this test?
Found: active

Lookup: Which outcome was entered for the compound `COP(=O)(CCC(=O)NCO)OC` in this test?
Found: inactive

Lookup: Which outcome was entered for the compound `CCOP(=S)(OCC)SCS(=O)(=O)CC` in this test?
Found: inactive

Lookup: Which outcome was entered for the compound `Cc1ccc(N)cc1N` in this test?
Found: inactive

###

experimental details: APR_HepG2_CellCycleArrest_72hr: Apredica 72-hour HepG2 Assay for Cell Cycle Arrest (AID 2282914)
condition set: high-content imaging, actives raise or lower the signal
Calls of active or inactive are those of the source. Rule for the calls: active = hit-call score of the fitted dose curve at least 0.9, where 1 is the maximum; inactive = score below 0.9.
Tick one outcome: yes (active), no (inactive)

Answered examples (5):
| compound | category label |
| --- | --- |
| c1ccc2c(c1)Nc1ccccc1S2 | no |
| O=P1(N(CCCl)CCCl)NCCCO1 (configuration not stated) | no |
| CCN(CC)c1ccccc1 | no |
| Nc1cc2c3c(c1)C(c1ccccc1)=N[C@@H](NC(=O)c1cccnc1)C(=O)N3CC2 | no |
| CCOC(=O)c1ccccc1C(=O)OCC | no |

Lookup: Which outcome was entered for the compound CCOP(=S)(Oc1ccc([N+](=O)[O-])cc1)c1ccccc1 (configuration not stated) in this test?
Found: no

Lookup: Which outcome was entered for the compound `Nc1ccc2ccccc2c1` in this test?
Found: yes

###

experimental details: BSK_3C_Proliferation: Cell Proliferation Assessment in the BioMAP Diversity Plus: 3C Assay (AID 2283006)
condition set: primary human endothelial cells (HUVEC)
Calls of active or inactive are those of the source. How the source made its calls: active means hit-call score of the fitted dose curve at least 0.9, where 1 is the maximum; inactive means score below 0.9.
Tick one outcome: active, inactive

Answered examples (8):
| compound | category label |
| --- | --- |
| CCCCC(CC)COC(=O)c1c(Br)c(Br)c(Br)c(Br)c1C(=O)OCC(CC)CCCC (centres undefined) | inactive |
| c1ccc2c(c1)sc1ccccc12 | inactive |
| OCC(F)(F)OC(F)(F)C(F)(F)OC(F)(F)CO | inactive |
| [N-]=[N+]=[N-] | inactive |
| CCCCc1ccccc1 | inactive |
| CCC(C)(C)c1ccc(O)cc1 | inactive |
| COCCOCCO | inactive |
| Nc1ccc([N+](=O)[O-])cc1Cl | inactive |

Lookup: Which outcome was entered for the compound O=P1(N(CCCl)CCCl)NCCCO1 (centres undefined) in this test?
Found: inactive

Lookup: Which outcome was entered for the compound CC(O)C(F)(F)C(F)(F)F (centres undefined) in this test?
Found: inactive

Lookup: Which outcome was entered for the compound `Cc1c([N+](=O)[O-])cc2c(c1[N+](=O)[O-])C(C)(C)CC2(C)C` in this test?
Found: active

Lookup: Which outcome was entered for the compound `Nc1ccc2ccccc2c1` in this test?
Found: inactive

Lookup: Which outcome was entered for the compound `O=[N+]([O-])c1ccc(Cl)c(Cl)c1` in this test?
Found: inactive

Lookup: Which outcome was entered for the compound `O=C(O)C=CC(F)(C(F)(F)F)C(F)(F)F` in this test?
Found: inactive

###

experimental details: ATG_NRF2_ARE_CIS: Attagene CIS-FACTORIAL HepG2 Assay for human Nuclear Factor Erythroid 2 Related Factor 2 (NFR2) response to Antioxidant Response Elements (ARE) (AID 2282992)
condition set: HepG2 Attagene ARE/NRF2 reporter, transcription factor activity; actives raise or lower the signal
Active and inactive are the calls of the source. Rule for the calls: active = hit-call score of the fitted dose curve at least 0.9, where 1 is the maximum; inactive = score below 0.9.
Tick one outcome: active, inactive

Lookup: Which outcome was entered for the compound `CC(=O)CCc1ccc2c(c1)OCO2` in this test?
Found: inactive

Lookup: Which outcome was entered for the compound CC(O)C(F)(F)C(F)(F)F (centres undefined) in this test?
Found: inactive

Lookup: Which outcome was entered for the compound `CCOC(=O)c1ccccc1N` in this test?
Found: inactive

###

Read-out: Tumor necrosis factor (Homo sapiens) (UniProt P01375)
Sequence (P01375 whole entry, looked up): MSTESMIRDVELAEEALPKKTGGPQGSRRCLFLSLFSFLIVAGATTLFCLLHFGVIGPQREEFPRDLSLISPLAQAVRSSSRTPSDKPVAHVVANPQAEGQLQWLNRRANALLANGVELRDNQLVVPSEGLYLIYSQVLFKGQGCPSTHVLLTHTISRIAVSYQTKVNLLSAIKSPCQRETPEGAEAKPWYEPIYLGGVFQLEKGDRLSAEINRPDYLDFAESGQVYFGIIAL
experimental details: BSK_LPS_TNFa: BioMAP Diversity Plus: LPS Assay for Tumour Necrosis Factor alpha (TNFa) Biomarker Activity (AID 2283085);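 for AC50: TNFa protein level quantified by ELISA in the co-culture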
condition set: primary human HUVEC with PBMC; actives raise or lower the signal
The source made the active and inactive calls. Rule for the calls: active = hit-call score of the fitted dose curve at least 0.9, where 1 is the maximum; inactive = score below 0.9.
readout label: AC50

| compound | endpoint value |
| --- | --- |
| Cc1c([N+](=O)[O-])cc2c(c1[N+](=O)[O-])C(C)(C)CC2(C)C | inactive |
| COP(N)(=S)OC | inactive |
| ClC1=C(Cl)C2(Cl)C3C(Cl)C(Cl)CC3C1(Cl)C2(Cl)Cl (centres undefined) | 32.7 µM (active) |
| COP(=O)(O)OC | inactive |
